# Test system: Escherichia coli TOP10
# Protocol Details: shrunken log2 fold change of peptide-encoding DNA abundance (4.5 h post-induction vs induction); higher = less antimicrobial activity (less host growth inhibition)
# Assay Conditions: time post-induction: 4.5 h; library: site-saturation at positions 5, 18, 19, 20
Listed here: items and their measured shrunken log2 fold change.

Seq String	shrunken log2 fold change
RRIRFRPPRLPRPRPRPCIAPRP	-0.166

Moving on to another sequence below.
stdin: May I ask what shrunken log2 fold change has been recorded for RRIRDRPPRLPRPRPRPYTWPRP ?
stdout: 0.00489

###

Listed sequences paired with reported shrunken log2 fold change
# Tested on: Escherichia coli TOP10
# Protocol Details: shrunken log2 fold change of peptide-encoding DNA abundance (4.5 h post-induction vs induction); higher = less antimicrobial activity (less host growth inhibition)
# Assay Conditions: time post-induction: 4.5 h; library: site-saturation at positions 5, 18, 19, 20
Answer with the value's number alone.

Consider the following illustrative entries.
Seq String	Readout Type	Recorded Number
RRIRRRPPRLPRPRPRPVVDPRP	shrunken log2 fold change	0.372
RRIRTRPPRLPRPRPRPMLMPRP	shrunken log2 fold change	-0.248
RRIRSRPPRLPRPRPRPMRFPRP	shrunken log2 fold change	0.378

stdin: // shrunken log2 fold change lookup, key: RRIRRRPPRLPRPRPRPCFKPRP
stdout: -0.236

stdin: Recorded shrunken log2 fold change for RRIRQRPPRLPRPRPRPKECPRP , please?
stdout: -0.0193

stdin: Value lookup for shrunken log2 fold change; key = RRIRCRPPRLPRPRPRPTKKPRP
stdout: -0.000922

stdin: # shrunken log2 fold change lookup, item RRIRRRPPRLPRPRPRPVPDPRP
stdout: 0.173

stdin: Give its shrunken log2 fold change value. Item: RRIRNRPPRLPRPRPRPDSMPRP
stdout: -0.0386

###

# Test system: Escherichia coli TOP10
# Protocol Details: shrunken log2 fold change of peptide-encoding DNA abundance (4.5 h post-induction vs induction); higher = less antimicrobial activity (less host growth inhibition)
# Assay Conditions: time post-induction: 4.5 h; library: site-saturation at positions 5, 18, 19, 20
In this section, each of the sequences is paired with its reported shrunken log2 fold change.

stdin: Request the reported shrunken log2 fold change associated with RRIRHRPPRLPRPRPRPARDPRP
stdout: 0.147

stdin: # lookup: shrunken log2 fold change of RRIRKRPPRLPRPRPRPLYSPRP
stdout: -0.105

stdin: Quick one: shrunken log2 fold change of RRIRDRPPRLPRPRPRPVVHPRP ?
stdout: 0.0965

stdin: Could you share which shrunken log2 fold change value was measured for RRIRGRPPRLPRPRPRPFYLPRP ?
stdout: -0.0695

stdin: Returns the measured shrunken log2 fold change for the input sequence. Input: RRIRDRPPRLPRPRPRPDKDPRP
stdout: 0.0428

stdin: What does the data say about its shrunken log2 fold change? Entry: RRIRNRPPRLPRPRPRPLMNPRP
stdout: -0.853

stdin: Recorded shrunken log2 fold change of RRIRFRPPRLPRPRPRPTKIPRP , please.
stdout: 0.359

stdin: Bench note: what shrunken log2 fold change did RRIRTRPPRLPRPRPRPTVKPRP show?
stdout: 3.07

stdin: Fill in the blank: the reported shrunken log2 fold change of RRIRPRPPRLPRPRPRPNSMPRP is ____.
stdout: -0.251

stdin: Requested read-out: shrunken log2 fold change. Entry: RRIRYRPPRLPRPRPRPSIWPRP
stdout: -1.31

stdin: For RRIRCRPPRLPRPRPRPLSFPRP , what is its reported shrunken log2 fold change?
stdout: -0.398

stdin: For RRIRTRPPRLPRPRPRPDVSPRP , what is its reported shrunken log2 fold change?
stdout: -0.223

stdin: Could you share which shrunken log2 fold change value was measured for RRIRIRPPRLPRPRPRPPMWPRP ?
stdout: 0.00227

stdin: Using the record for RRIRMRPPRLPRPRPRPFALPRP , report its shrunken log2 fold change.
stdout: 0.0192

###

Listing: shrunken log2 fold change of selected sequences
# Tested on: Escherichia coli TOP10
# Protocol Details: shrunken log2 fold change of peptide-encoding DNA abundance (4.5 h post-induction vs induction); higher = less antimicrobial activity (less host growth inhibition)
# Assay Conditions: time post-induction: 4.5 h; library: site-saturation at positions 5, 18, 19, 20
Just the number, please, no unit attached.

Worked cases, shrunken log2 fold change given:
Seq String	System Name	Readout Type	Recorded Number
RRIRSRPPRLPRPRPRPVSSPRP	Escherichia coli TOP10	shrunken log2 fold change	0.0316
RRIRIRPPRLPRPRPRPQFFPRP	Escherichia coli TOP10	shrunken log2 fold change	-0.304
RRIRYRPPRLPRPRPRPMGRPRP	Escherichia coli TOP10	shrunken log2 fold change	-0.117
RRIRLRPPRLPRPRPRPNYTPRP	Escherichia coli TOP10	shrunken log2 fold change	-0.91

stdin: Field: shrunken log2 fold change (Escherichia coli TOP10). Entry: RRIRSRPPRLPRPRPRPQGAPRP
stdout: 2.34

stdin: Item RRIRQRPPRLPRPRPRPLSEPRP with Escherichia coli TOP10 - shrunken log2 fold change?
stdout: 0.0232

stdin: shrunken log2 fold change of RRIRHRPPRLPRPRPRPDTFPRP on Escherichia coli TOP10?
stdout: -1.19

stdin: Lookup: shrunken log2 fold change / Escherichia coli TOP10 / RRIRHRPPRLPRPRPRPPNIPRP
stdout: -0.157

stdin: # query: shrunken log2 fold change | item RRIRDRPPRLPRPRPRPKHDPRP | system: Escherichia coli TOP10
stdout: -0.16

###

# key: entry, value: shrunken log2 fold change
# Tested on: Escherichia coli TOP10
# Protocol Details: shrunken log2 fold change of peptide-encoding DNA abundance (4.5 h post-induction vs induction); higher = less antimicrobial activity (less host growth inhibition)
# Assay Conditions: time post-induction: 4.5 h; library: site-saturation at positions 5, 18, 19, 20
Respond numerically, and do not add a unit to the figure.

Seq String	shrunken log2 fold change
RRIRSRPPRLPRPRPRPYMEPRP	2.73
RRIRYRPPRLPRPRPRPHNNPRP	-1.16
RRIRSRPPRLPRPRPRPPNDPRP	-0.0183

stdin: Consider the sequence shown here: RRIRRRPPRLPRPRPRPDFYPRP What is its recorded shrunken log2 fold change?
stdout: 0.159

stdin: Consider the sequence shown here: RRIRHRPPRLPRPRPRPFYSPRP What is its recorded shrunken log2 fold change?
stdout: -0.00674

stdin: Find the recorded shrunken log2 fold change belonging to RRIRRRPPRLPRPRPRPTMNPRP and report it.
stdout: -0.0748

stdin: Find the recorded shrunken log2 fold change belonging to RRIRPRPPRLPRPRPRPKGWPRP and report it.
stdout: 1.22

stdin: What value of measured shrunken log2 fold change is listed for RRIRGRPPRLPRPRPRPWSHPRP ?
stdout: -0.155

###

# Test system: Escherichia coli TOP10
# Protocol Details: shrunken log2 fold change of peptide-encoding DNA abundance (4.5 h post-induction vs induction); higher = less antimicrobial activity (less host growth inhibition)
# Assay Conditions: time post-induction: 4.5 h; library: site-saturation at positions 5, 18, 19, 20
Readout Type: shrunken log2 fold change
API doc: respond with a numeric literal and nothing else, no unit.

Seq String	Recorded Number
RRIRQRPPRLPRPRPRPFKFPRP	-0.00873
RRIRFRPPRLPRPRPRPWAPPRP	-0.013
RRIRLRPPRLPRPRPRPTNHPRP	-0.174

stdin: Name the reported shrunken log2 fold change value associated with the sequence RRIRTRPPRLPRPRPRPARTPRP
stdout: 0.381

stdin: For the sequence RRIRKRPPRLPRPRPRPQIKPRP , what shrunken log2 fold change is on record?
stdout: 0.0963

stdin: Query: shrunken log2 fold change; subject: RRIRRRPPRLPRPRPRPYDPPRP
stdout: 0.0185

###

# Tested on: Escherichia coli TOP10;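 note: peptides expressed intracellularly from a pBAD plasmid library in pooled LB shake-flask culture, induced with 0.3% L-arabinose, DNA abundance read by NGS, three biological replicates, DESeq2 with apeglm shrinkage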
# Protocol Details: shrunken log2 fold change of peptide-encoding DNA abundance (4.5 h post-induction vs induction); higher = less antimicrobial activity (less host growth inhibition)
# Assay Conditions: time post-induction: 4.5 h; library: site-saturation at positions 5, 18, 19, 20
Measured shrunken log2 fold change, listed per entry for reference.
Keep the answer to the number alone.

Take a look at these entries with their results.
Seq String	shrunken log2 fold change
RRIRYRPPRLPRPRPRPNTTPRP	-0.114
RRIRARPPRLPRPRPRPDTPPRP	0.331
RRIRCRPPRLPRPRPRPFMFPRP	-0.421
RRIRNRPPRLPRPRPRPWCWPRP	-0.0119
RRIRSRPPRLPRPRPRPRPFPRP	0.188

stdin: Can you share its shrunken log2 fold change? I mean this sequence: RRIRVRPPRLPRPRPRPSRKPRP
stdout: 0.00977

stdin: Endpoint output: shrunken log2 fold change of RRIRNRPPRLPRPRPRPMQIPRP . Value?
stdout: 0.0592

stdin: What value of shrunken log2 fold change has been reported for the following sequence? RRIRWRPPRLPRPRPRPFFVPRP
stdout: 0.173

stdin: Could you tell me which shrunken log2 fold change is on file for RRIRPRPPRLPRPRPRPKKSPRP ?
stdout: 0.085
